- MEASUREMENT_TARGET: T1, ZFP SBS#301 (synthetic)
- T1 chain: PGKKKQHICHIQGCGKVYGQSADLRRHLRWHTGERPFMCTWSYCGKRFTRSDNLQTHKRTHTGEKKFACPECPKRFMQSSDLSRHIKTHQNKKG
- TEST_PROTOCOL: EMSA
- TEST_PARAMETERS: tags: MBP fusion
PROPERTY_MEASURED: pKd
For clarity, pKd is expressed as the negative log10 of concentration in mol/L.

Input line: Note down pKd recorded for GCTTAGGCA (dsDNA) DNA 1: GCTTAGGCA DNA 2: TGCCTAAGC
Output line: 6.46
